Reported values of mouse B lymphocyte proliferation (OD450 nm), antibody 0.032 nM for individual entries
molecular target: mouse BLyS protein (mouse, UniProt Q9WU72 69-309); experiment: cell-based or functional assay
Sequence (Q9WU72 69-309): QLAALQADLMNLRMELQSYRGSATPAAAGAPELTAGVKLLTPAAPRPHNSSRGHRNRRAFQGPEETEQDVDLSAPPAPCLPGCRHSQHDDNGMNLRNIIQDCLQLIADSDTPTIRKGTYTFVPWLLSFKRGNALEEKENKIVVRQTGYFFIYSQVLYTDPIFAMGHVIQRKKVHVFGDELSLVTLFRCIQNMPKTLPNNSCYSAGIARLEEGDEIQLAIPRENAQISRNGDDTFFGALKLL
All answers are understood in OD450 nm, so give the number only.

>>> quantitative_readout("8E7D9C7F5 (antibody, V domains shown, Mouse hybridoma monoclonal antibody purified on Protein G) VH: QVQLQQSGVELARPGASVKLSCKASGYTFTSYGISWVKQRTGQALEWIGEIYPRSGNTYYNEKFKGKATLTADKSSSTAYMELRSLTSEDSAVYFCARSGPITTLVATDYGMDYWGQGTSVTVSS VL: DIVLTQSPASLAVSLGQRATISCRASKSVSTSSYSYMHWYQQKPGQPPKLLIKFASNLESGVPARFSGSGSGTDFTLNIHPVEEEDAATYYCQHSREFPYTFGGGTKLEIK")
2320
>>> quantitative_readout("2-1G11 (antibody, V domains shown, From a human naive scFv phage library; also called human BLyS antibody 2-1G11) VH: EVQLVESRGGVVQPGRSLRLSCAASGFTFSSYGMHWVRQAPGKGLEWVAVISYDGSNKYYADSVKGRFTISRDNSKNTLYLQMNSLRAEDAAVYYCARDRVDILTGYSIYGMDVWGQGTTVTVSS VL: EIVMTQSPATLSLSPGERATLSCRASQSVSSYLAWYQQKPGQAPRLLIYDASKRATGIPARFSGSGSGTDFTLTISSLEPEDFAVYYCQQRSNWPLTFGGGTKVEIK")
2470

Kindly consider the entry below.
// mouse B lymphocyte proliferation (OD450 nm), antibody 0.032 nM value for 97A3C2H4 (antibody, V domains shown, Mouse hybridoma monoclonal antibody purified on Protein G) VH: EVKLVESGGGLVQPGGSLKLSCAASGFTFSTYTMSWVRQTPEKRLEWVAYISYGGGSTSYPDTVKGRFTISRDNAKNTLYLQMSSLKSEDTAIYYCTRHVTVVENSMDYWGQGTSVTVSS VL: DILLTQSPDILSVSPGERVSFSCRASQSIGTSIHWYQQRTNGSPRLLIKYVSESFSGTPSRFSGSGSGTAFTLTINSVESEDIADYYCQQTHSWPWTFGGGTKLEIK : 2370

Data credit: patent US20210347873A1
